- protocol.description: A quantitative high throughput screen for small molecules that induce DNA re-replication in SW480 colon adenocarcinoma cells. Further: nearly all actives have a fitted effect of over 55% in size.
- condition.label: Hoechst DNA content imaging, 48 h; series mostly up to 46.1 µM
About 6,200 (1.8%) of roughly 340,000 compounds were called active. Inconclusive results (about 10%) are left out. The call rests on the fitted dose curve; in most records, active means well fitted activation curve with a large enough effect; inconclusive means small, poorly fitted or top-dose-only effect; inactive means no such curve, though single readings can be large or run the other way. The list comes from a sample in which actives are over-represented; it also holds close analogues and randomly drawn compounds.
Result category, one only: Yes for active, No for inactive

Kindly provide the recorded test outcome for the following molecule: `COc1ccccc1C(=O)NCC(=O)OCC(=O)NNC(=O)c1ccc(Br)cc1`
No

Lab log entry: O=C1/C(=C\c2ccc(O)cc2)CCC1CNc1ccc(Cl)cc1 (centres undefined) — outcome as called in the assay?
Yes

How was `O=[N+]([O-])c1ccccc1/C=C/CN1CCC(O)CC1` classified in this test?
No

Each molecule tested received a call. Report the one for O=[N+]([O-])c1ccccc1/C=C/CN1CCCC(CO)C1 (centres undefined) .
No

Would you mind telling me which call this test gave `CCn1nc(NC(=O)c2ccco2)c2cc3ccc(C)cc3nc21` ?
Yes

// param item: Fc1ccc(N2N=C(c3cccs3)CC2c2ccco2)c(F)c1 (centres undefined) ; yields the recorded call
Yes

Hi, do you know how `Cc1cc(C)nc(S/C=C/C(=O)c2ccccc2)n1` came out in this test?
Yes

Any idea what this test logged for `Cc1ccnc(NC(=O)c2ccco2)n1` ?
No

Write down the call the test reported for this molecule. Item: `COc1cccc(NC(=O)CN(C)CC(=O)c2c(N)n(Cc3ccccc3)c(=O)n(C)c2=O)c1`
No

Field: outcome | Entry: `CCc1cc2c(=O)n(-c3ccccc3)c(SCC(=O)O)nc2s1`
Yes

Which result was noted for this molecule in the test: CC1CCCCC1NC(=O)/C(C#N)=C/C=C/c1ccccc1[N+](=O)[O-] (centres undefined)
Yes

What is the recorded call for this molecule in the test? `CCCc1cc(=O)[nH]c(SCC(=O)Nc2ccc(C(=O)Nc3ccccc3OC)cc2)n1`
No

Answer briefly: the call reported for `Cc1ccc(C2=N/C(=C\c3ccc(OS(=O)(=O)c4ccc(C)cc4)cc3)C(=O)O2)cc1` in this assay.
No

Please share the test call associated with `Cc1cccc(C2=N/C(=C/c3cccs3)C(=O)O2)c1` .
Yes

Tell me the assay call for `COc1cc(S(=O)(=O)N2CCN(C(=O)C3CC3)CC2)ccc1NC(C)=O` please.
No

What did this assay record as the result for `Cc1noc(C)c1C(=O)NCCc1ccc(S(N)(=O)=O)cc1` ?
No

Could you check what this test reported for `CC(=O)Oc1ccc2c(c1)C(=O)c1ccccc1C2=O` ?
No

Which result was noted for this molecule in the test: `CN(Cc1ccc(CNC[C@H]2O[C@@H](n3cnc4c(N)ncnc43)[C@H](O)[C@@H]2O)o1)S(C)(=O)=O`
No

// param item: `O=C(CSc1cccc[n+]1[O-])c1ccc(Cl)cc1` ; yields the recorded call
No

Identify the outcome logged in this assay for the molecule shown: `CCOc1ccc(CCNC(=O)COC(=O)C2CCN(S(=O)(=O)c3ccccc3)CC2)cc1OCC`
No

====

- protocol.description: A quantitative high throughput screen for small molecules that induce DNA re-replication in SW480 colon adenocarcinoma cells. Further: nearly all actives have a fitted effect of over 55% in size.
- condition.label: Hoechst DNA content imaging, 48 h; series mostly up to 46.1 µM
Out of some 340,000 compounds screened, about 6,200 (1.8%) were called active. Roughly 10% stayed inconclusive and do not appear here. Calls come from the whole dose curve; as a rule, active = well fitted activation curve with a large enough effect; inconclusive = small, poorly fitted or top-dose-only effect; inactive = no such curve, though single readings can be large or run the other way. This excerpt belongs to a sample that is enriched for actives.
Returns: one label drawn from YES = active, NO = inactive

For orientation, consider the following solved cases.
[[record]]
compound = "CCOc1ccc2nc(NCCNS(=O)(=O)c3ccccc3)c(C#N)cc2c1"
group = "YES"

[[record]]
compound = "Nn1c(SCC(=O)NC2CCCc3ccccc32)nnc1C1CC1 (configuration not stated)"
group = "NO"


Fill in: this test's call for `CCOc1ccc2nc(NCCNC(=O)C(C)(C)C)c(C)cc2c1` is ___
NO

Hi, sorry to bother you, what did the test record for COc1ccc(CCOC2OC(CO)C(OC(=O)/C=C/c3ccc(O)c(OC)c3)C(O[C@H]3O[C@@H](C)[C@H](O)[C@@H](O)[C@H]3O)C2O)cc1O (some centres not stated) ?
NO

Lab log entry: `CN(C(=O)COC(=O)Cn1cnc2c1c(=O)n(C)c(=O)n2C)C1(C#N)CCCCC1` — outcome as called in the assay?
NO

State the result this test recorded for `COc1ccc(CNC2CCCCC2)cc1` .
NO

Write down the call the test reported for this compound. Item: `Cn1cc(C(=O)c2ccc(Cl)cc2Cl)cc1C(=O)NN`
NO

Give the logged outcome of this assay for the following compound: `Cc1ccc(C(=O)NCC(=O)NC2CC2)cc1`
NO

Recorded call for O=C1C2C3C=CC(C3)C2C(=O)N1c1ncc([N+](=O)[O-])s1 (configuration not stated) ?
NO

# outcome recorded in this test, key = `COc1ccc(CSc2nc(N3CCOCC3)c3c(c2C#N)CC(C)(C)OC3)cc1`
NO

Entry CC(CN1CCOCC1)c1ccccc1 (configuration not stated) : call = ?
NO

Can you look up the reported call for `COc1ccc(OC)c(NC(=O)COC(=O)Cc2ccsc2)c1` for me?
NO

====

- protocol.description: A quantitative high throughput screen for small molecules that induce DNA re-replication in SW480 colon adenocarcinoma cells. Further: nearly all actives have a fitted effect of over 55% in size.
- condition.label: Hoechst DNA content imaging, 48 h; series mostly up to 46.1 µM
Out of some 340,000 compounds screened, about 6,200 (1.8%) were called active. Roughly 10% stayed inconclusive and do not appear here. Calls come from the whole dose curve; as a rule, active = well fitted activation curve with a large enough effect; inconclusive = small, poorly fitted or top-dose-only effect; inactive = no such curve, though single readings can be large or run the other way. For the sample, actives were picked, then their nearest neighbours and some compounds at random.
Respond only with the outcome that fits, drawn from 1.0 = active, 0.0 = inactive

# example entries with known answers
[[record]]
compound = "O=C(Cc1ccc(Cl)cc1)c1ccccc1"
group = 0.0

[[record]]
compound = "O=C(NCc1ccc2c(c1)OCO2)c1cc(F)c(F)cc1Cl"
group = 0.0

[[record]]
compound = "COC(=O)c1ccc(CNC(=O)Cn2cc(C)c(=O)[nH]c2=O)cc1"
group = 0.0

[[record]]
compound = "Cc1cccc(OCC(=O)OCC(=O)Nc2ccc(Cl)cn2)c1"
group = 0.0


Please state the recorded outcome for this compound: `C=CCC[C@@H](Cc1ccc(F)cc1)C(=O)OC[C@@H](C)NC(=O)[C@H](CC=C)CC(=O)N(CCO)Cc1ccccc1`
0.0

Would you mind telling me which call this test gave `Cc1ccc(-n2[nH]c(C)c(/C=N/N3C(=O)c4cccc5cccc(c45)C3=O)c2=O)cc1` ?
1.0

Hi team, can someone confirm the assay call for C#CCOCCOCCOCCNc1nc(N2CCN(C(=O)C([C@@H](C)O)n3cc([C@@H](N)CCCCN)nn3)CC2)nc(N2CCN(C(=O)[C@H](CCCCN)n3cc(CN)nn3)CC2)n1 (stereo not given in full) ?
0.0

Outcome logged for COC(=O)C1=C(C)NC(=O)CC1c1ccccc1OC (stereo not given) in this assay:
0.0

Field: outcome | Entry: `CC(=O)Nc1ccc(NC(=O)c2sc3nc4c(c(-c5ccc(C)cc5)c3c2N)CCC4)cc1`
1.0

Which result was noted for this compound in the test: CC1(C(=O)N/N=C/c2cc3c(cc2Br)OCO3)CC1(Br)Br (stereo not given)
0.0

What was the test verdict on Cc1ccc2c(c1)C1C[N+](C)(CC(=O)c3ccccc3)CCC1N2C(=O)c1ccccc1Cl (stereo not given) ?
0.0

Per the assay record, what outcome was assigned to `COc1cccc(CC(=NO)c2cccc(OC)c2)c1` ?
0.0

Would you mind telling me which call this test gave `CCc1nc(C)cn1S(=O)(=O)c1cc([N+](=O)[O-])ccc1Cl` ?
1.0

Write down the call the test reported for this compound. Item: `Cc1[nH]n(-c2ccc([N+](=O)[O-])cc2)c(=O)c1C=NCCN1CCN(C(=O)c2ccccc2F)CC1`
0.0

Which outcome was assigned to `CC(C)(C)NS(=O)(=O)NC(=O)C1=C(N2CCCC2)COC1=O` in this test?
0.0

Hello, I am checking results. What call was entered for OC(COc1ccccc1)CN1CCN(c2cccc(Cl)c2)CC1 (stereo not given) ?
0.0

Hey, what did the test say about `CCc1nc(C)cn1S(=O)(=O)c1cc(OC)c(C)cc1C` ?
0.0

Recorded call for `Cc1ccc(NC(=O)c2csc3c2CCCC3)cc1` ?
0.0

Hi, do you know how `CCOC(=O)CCCCCC(=O)Nc1ccc2c(c1)CC(=O)N([C@@H](C)CO)C[C@H](C)[C@@H](CN(C)Cc1ccccc1)O2` came out in this test?
0.0

Any idea what this test logged for `O=C(Cc1ccc([N+](=O)[O-])cc1)NCCc1ccc2c(c1)OCO2` ?
0.0

====

- protocol.description: A quantitative high throughput screen for small molecules that induce DNA re-replication in SW480 colon adenocarcinoma cells. Further: nearly all actives have a fitted effect of over 55% in size. Further: potency means the concentration at half of the fitted maximal effect.
- condition.label: Hoechst DNA content imaging, 48 h; series mostly up to 46.1 µM
In all, about 340,000 compounds went through this assay and about 6,200 (1.8%) were called active. About 10% were inconclusive and are not listed. Shown is part of a subset that was picked to be rich in actives.
reported.metric: Potency

[[record]]
compound = "COc1ccc(CCNC(=O)COC(=O)c2cc(=O)c3ccccc3o2)cc1"
test_result = "inactive"

[[record]]
compound = "O=C1C(=O)N(c2ccccc2)C(c2ccccc2)C1c1ccccc1 (stereo not given)"
test_result = "inactive"

[[record]]
compound = "O=C(Nc1cccc(S(=O)(=O)N2CCOCC2)c1)C12CC3CC(CC(C3)C1)C2"
test_result = "inactive"

[[record]]
compound = "COc1cccc(/C=N/Nc2ncc(C(F)(F)F)cc2Cl)c1O"
test_result = "0.92 µM (active)"

[[record]]
compound = "Cc1cc(C)c(C=NNc2nc3c([nH]2)c(=O)n(C)c(=O)n3C)c(C)c1"
test_result = "inactive"


# ---- query compound ----
Read the entry Cc1ccc(NC(=O)C(C)OC(=O)C2CC3CCCC(C2)C3=O)cc1S(=O)(=O)N1CCOCC1 (stereo not given) and write its reported Potency.
inactive

src = PubChem BioAssay AID624297
